target: E. coli DNA gyrase (Escherichia coli (strain K12), UniProt P0AES4+P0AES6); assay: biochemical; format: biochemical; settings: IC50 (µM) EC, Table 5, E. coli gyrase
Please assign not satisfied whenever IC50 is at or above 20 µM, and satisfied whenever it is below.

INSERT INTO measurements (compound, assigned_class) VALUES
  ('Cc1c(CCC(=O)O)c(=O)oc2c(C)c3occ(-c4ccc(Cl)cc4)c3cc12 [Compound 120]', 'satisfied'),
  ('Cc1c(CCC(=O)O)c(=O)oc2c(C)c3occ(-c4ccc(N5CCCC5)cc4)c3cc12 [Compound 125]', 'satisfied'),
  ('Cc1c(CCC(=O)O)c(=O)oc2cc3occ(-c4ccc(Cl)cc4)c3cc12 [Compound 25]', 'satisfied'),
  ('Cc1c(CCC(=O)O)c(=O)oc2c(C)c3occ(-c4ccccc4)c3cc12 [Compound 121]', 'not satisfied'),
  ('Cc1c(C)c2cc3c(-c4ccc(Br)cc4)coc3c(C)c2oc1=O [Compound 118]', 'not satisfied'),
  ('Cc1coc2cc3oc(=O)c(CCC(=O)O)c(C)c3cc12 [Compound 122]', 'not satisfied'),
  ('Cc1c(CCC(=O)O)c(=O)oc2c(C)c3occ(-c4ccc(F)cc4)c3cc12 [Compound 123]', 'not satisfied'),
  ('Cc1c(CCC(=O)O)c(=O)oc2c(C)c3occ(-c4ccc5ccccc5c4)c3cc12 [Compound 124]', 'satisfied'),
  ('Cc1c(CCC(=O)O)c(=O)oc2c(C)c3occ(-c4ccc(-c5ccccc5)cc4)c3cc12 [Compound 119]', 'satisfied'),
  ('Cc1c(CC(=O)O)c(=O)oc2c(C)c3occ(-c4ccc(Br)cc4)c3cc12 [Compound 117]', 'satisfied');

* * *

Read-out record for human DNA topoisomerase IIα (Homo sapiens (Human), UniProt P11388): pIC50
pIC50: −log10 of the molar value.
attribute measured: pIC50

INSERT INTO assay_data (smiles_entry, result_value) VALUES
  ('Cc1c(CCC(=O)O)c(=O)oc2c(C)c3occ(-c4ccc5ccccc5c4)c3cc12', 3.93),
  ('Cc1c(CCC(=O)O)c(=O)oc2c(C)c3occ(-c4ccc(-c5ccccc5)cc4)c3cc12', 3.88);

* * *

molecular target: E. coli DNA gyrase (Escherichia coli (strain K12), UniProt P0AES4+P0AES6); test: SDFQ-based DNA gyrase inhibition assay; type: biochemical; settings: Table 8; read-out: IC50 Gyrase SDFQ
attribute measured: IC50 (µM)

INSERT INTO measurements (molecule, assayed_system, result_comparator, result_value) VALUES
  ('O=C(O)c1cc(O)c(O)c(OC(=O)c2cc(O)c(O)c(O)c2)c1', 'E. coli DNA gyrase (Escherichia coli (strain K12), UniProt P0AES4+P0AES6)', '=', 1.9),
  ('CCCCCCCCOC(=O)c1cc(O)c(O)c(O)c1 [Octyl gallate, octyl gallate]', 'E. coli DNA gyrase (Escherichia coli (strain K12), UniProt P0AES4+P0AES6)', '=', 26),
  ('O=C(Oc1ccccc1)c1cc(O)c(O)c(O)c1 [Phenyl gallate, phenyl gallate]', 'E. coli DNA gyrase (Escherichia coli (strain K12), UniProt P0AES4+P0AES6)', '>', 100),
  ('CCCCCCCCCCCCOC(=O)c1cc(O)c(O)c(O)c1 [Dodecyl gallate, dodecyl gallate]', 'E. coli DNA gyrase (Escherichia coli (strain K12), UniProt P0AES4+P0AES6)', '=', 13.8),
  ('CCCCOC(=O)c1cc(O)c(O)c(O)c1 [Butyl gallate, butyl gallate]', 'E. coli DNA gyrase (Escherichia coli (strain K12), UniProt P0AES4+P0AES6)', '>', 100);

* * *

Molecular target: E. coli DNA gyrase (Escherichia coli (strain K12), UniProt P0AES4+P0AES6)
Experiment: Agarose gel-based DNA gyrase inhibition assay
Type: biochemical
Conditions: 200 µM of compounds
Procedure: 100 ng of DNA gyrase was used to supercoil the rx pAB1 in the presence of different concentrations of a gyrase inhibitor. […] Samples were analyzed by electrophoresis in 1% w/v agarose gels followed by ethidium bromide staining and photographed under UV light.
attribute measured: inhibition of E. coli DNA gyrase activities

INSERT INTO assay_data (smiles_entry, assayed_system, result_value) VALUES
  ('CCN(CCCNc1cc2c(c(N)c1S(=O)(=O)O)C(=O)c1ccccc1C2=O)c1ccccc1', 'E. coli DNA gyrase (Escherichia coli (strain K12), UniProt P0AES4+P0AES6)', 'completely inhibited'),
  ('O=C(O)c1cc(N2N=C(C(F)(F)F)/C(=C/C=C/c3ccco3)C2=O)ccc1Cl', 'E. coli DNA gyrase (Escherichia coli (strain K12), UniProt P0AES4+P0AES6)', 'completely inhibited'),
  ('O=C1/C(=C\c2ccc(O)cc2)SC(=S)N1/N=C/c1ccc(O)cc1', 'E. coli DNA gyrase (Escherichia coli (strain K12), UniProt P0AES4+P0AES6)', 'completely inhibited');

* * *

biological target: human DNA topoisomerase IIα (Homo sapiens (Human), UniProt P11388); assay: Agarose gel-based inhibition assay against human DNA topoisomerase IIα; format: biochemical; conditions: gallates at 100 µM
Sequence (P11388 whole entry): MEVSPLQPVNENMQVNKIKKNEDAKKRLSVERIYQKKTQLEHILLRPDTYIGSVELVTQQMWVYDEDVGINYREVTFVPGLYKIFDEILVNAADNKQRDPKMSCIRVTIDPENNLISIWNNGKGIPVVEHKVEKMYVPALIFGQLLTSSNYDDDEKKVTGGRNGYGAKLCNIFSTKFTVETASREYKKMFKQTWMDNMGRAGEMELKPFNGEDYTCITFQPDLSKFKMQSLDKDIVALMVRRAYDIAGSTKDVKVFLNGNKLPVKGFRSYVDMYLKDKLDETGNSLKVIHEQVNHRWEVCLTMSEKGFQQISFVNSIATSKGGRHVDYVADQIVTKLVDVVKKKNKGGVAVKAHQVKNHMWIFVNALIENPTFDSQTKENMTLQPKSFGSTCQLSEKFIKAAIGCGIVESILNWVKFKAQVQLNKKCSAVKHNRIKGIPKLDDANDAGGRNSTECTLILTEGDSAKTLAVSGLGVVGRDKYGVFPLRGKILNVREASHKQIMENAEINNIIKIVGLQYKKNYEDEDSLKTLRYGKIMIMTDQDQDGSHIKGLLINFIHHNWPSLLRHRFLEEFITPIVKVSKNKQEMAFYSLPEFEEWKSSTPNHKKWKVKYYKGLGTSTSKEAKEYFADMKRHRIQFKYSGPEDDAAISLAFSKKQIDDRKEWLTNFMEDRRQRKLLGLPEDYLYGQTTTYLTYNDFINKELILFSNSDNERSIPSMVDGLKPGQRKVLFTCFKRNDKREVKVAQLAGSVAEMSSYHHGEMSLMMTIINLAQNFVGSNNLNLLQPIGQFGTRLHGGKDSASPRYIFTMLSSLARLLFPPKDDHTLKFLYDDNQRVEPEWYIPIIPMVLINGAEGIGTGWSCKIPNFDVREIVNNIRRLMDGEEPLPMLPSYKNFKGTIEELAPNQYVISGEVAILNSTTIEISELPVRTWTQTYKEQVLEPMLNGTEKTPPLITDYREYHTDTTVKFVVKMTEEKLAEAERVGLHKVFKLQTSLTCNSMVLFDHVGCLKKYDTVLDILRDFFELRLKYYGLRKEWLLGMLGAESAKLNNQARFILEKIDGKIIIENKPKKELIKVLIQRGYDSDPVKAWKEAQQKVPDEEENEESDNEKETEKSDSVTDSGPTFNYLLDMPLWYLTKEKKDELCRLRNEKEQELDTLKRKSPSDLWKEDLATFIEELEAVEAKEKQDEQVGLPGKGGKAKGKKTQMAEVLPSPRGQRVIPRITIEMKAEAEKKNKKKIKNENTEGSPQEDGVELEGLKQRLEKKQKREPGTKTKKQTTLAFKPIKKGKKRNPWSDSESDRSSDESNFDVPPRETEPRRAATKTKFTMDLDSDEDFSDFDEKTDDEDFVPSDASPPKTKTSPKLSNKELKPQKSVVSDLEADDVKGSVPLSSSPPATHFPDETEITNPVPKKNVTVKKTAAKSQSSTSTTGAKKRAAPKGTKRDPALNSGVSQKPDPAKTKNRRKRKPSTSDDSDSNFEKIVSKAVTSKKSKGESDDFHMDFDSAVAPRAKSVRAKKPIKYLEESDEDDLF
attribute measured: inhibition of human DNA topoisomerase IIα

INSERT INTO assay_data (compound, assayed_system, result_value) VALUES
  ('CNC(=O)[C@H]1O[C@@H](n2cnc3c(NCc4cccc(I)c4)nc(Cl)nc32)[C@H](O)[C@@H]1O [chloro-IB-MECA, reference compound]', 'human DNA topoisomerase IIα (Homo sapiens (Human), UniProt P11388)', 'did not inhibit'),
  ('CNC(=O)[C@H]1O[C@@H](n2cnc3c(NCc4cccc(I)c4)ncnc32)[C@H](O)[C@@H]1O [IB-MECA, reference compound]', 'human DNA topoisomerase IIα (Homo sapiens (Human), UniProt P11388)', 'did not inhibit'),
  ('CNC(=O)[C@H]1O[C@@H](n2cnc3c(NCc4ccc(N)cc4)ncnc32)[C@H](O)[C@@H]1O [AB-MECA, reference compound]', 'human DNA topoisomerase IIα (Homo sapiens (Human), UniProt P11388)', 'did not inhibit');

* * *

target: E. coli DNA gyrase (Escherichia coli (strain K12), UniProt P0AES4+P0AES6); assay: SDFQ-based DNA gyrase inhibition assay; format: biochemical; conditions: SDFQ-based, three independent experiments; read-out: IC50 against E. coli DNA gyrase
pIC50: −log10 of the molar value.
# Lookup of reported pIC50 keyed by entry
attribute measured: pIC50

INSERT INTO measurements (compound, attribute_measured, result_value) VALUES
  ('N=C(N)Nc1nc(-c2ccccc2)c2cc(Cl)ccc2n1', 'pIC50', 5.51),
  ('CC(OC(=O)c1cc(O)c2ccccc2c1O)C(=O)Nc1ccc(C(N)=O)cc1 (centres unmarked)', 'pIC50', 4.32);

* * *

target: E. coli DNA gyrase (Escherichia coli (strain K12), UniProt P0AES4+P0AES6); assay: Agarose gel-based DNA gyrase inhibition assay; assay type: biochemical; settings: 50 µM of compounds
attribute measured: inhibition of E. coli DNA gyrase activities

INSERT INTO results (smiles_entry, result_value) VALUES
  ('Cc1c(CC(=O)O)c(=O)oc2c(C)c3occ(-c4ccc(Br)cc4)c3cc12', 'completely inhibited'),
  ('O=C(O)CCCN1C(=O)C(=Cc2ccc(-c3nc4ccccc4s3)o2)SC1=S', 'completely inhibited'),
  ('Cc1cc(/C=C2\SC(=S)N=C2O)c(C)n1-c1cccc(O)c1', 'completely inhibited');

* * *

target: E. coli DNA gyrase (Escherichia coli (strain K12), UniProt P0AES4+P0AES6); test: biochemical; assay type: biochemical; conditions: read-out: IC50 against E. coli DNA gyrase
# Lookup of reported IC50 keyed by entry
attribute measured: IC50

INSERT INTO assay_data (compound, assayed_system, attribute_measured, result_value) VALUES
  ('CNC(=O)[C@H]1O[C@@H](n2cnc3c(NCc4cccc(I)c4)ncnc32)[C@H](O)[C@@H]1O [IB-MECA, reference compound]', 'E. coli DNA gyrase (Escherichia coli (strain K12), UniProt P0AES4+P0AES6)', 'IC50', '50.7 µM'),
  ('Cc1c2cc(O)c(=O)cc-2oc2cc(O)c(O)cc12', 'E. coli DNA gyrase (Escherichia coli (strain K12), UniProt P0AES4+P0AES6)', 'IC50', '< 10 µM'),
  ('CNC(=O)[C@H]1O[C@@H](n2cnc3c(NCc4cccc(I)c4)nc(Cl)nc32)[C@H](O)[C@@H]1O [chloro-IB-MECA, reference compound]', 'E. coli DNA gyrase (Escherichia coli (strain K12), UniProt P0AES4+P0AES6)', 'IC50', '< 5 µM');

* * *

biological target: E. coli DNA topoisomerase IV (Escherichia coli (strain K12), UniProt P0AFI2+P20083); test: E. coli DNA topoisomerase IV relaxation assay (gel-based); type: biochemical; conditions: IC50 Topoisomerase IV Gel-based, Table 8
Sequence (P0AFI2 whole entry, looked up): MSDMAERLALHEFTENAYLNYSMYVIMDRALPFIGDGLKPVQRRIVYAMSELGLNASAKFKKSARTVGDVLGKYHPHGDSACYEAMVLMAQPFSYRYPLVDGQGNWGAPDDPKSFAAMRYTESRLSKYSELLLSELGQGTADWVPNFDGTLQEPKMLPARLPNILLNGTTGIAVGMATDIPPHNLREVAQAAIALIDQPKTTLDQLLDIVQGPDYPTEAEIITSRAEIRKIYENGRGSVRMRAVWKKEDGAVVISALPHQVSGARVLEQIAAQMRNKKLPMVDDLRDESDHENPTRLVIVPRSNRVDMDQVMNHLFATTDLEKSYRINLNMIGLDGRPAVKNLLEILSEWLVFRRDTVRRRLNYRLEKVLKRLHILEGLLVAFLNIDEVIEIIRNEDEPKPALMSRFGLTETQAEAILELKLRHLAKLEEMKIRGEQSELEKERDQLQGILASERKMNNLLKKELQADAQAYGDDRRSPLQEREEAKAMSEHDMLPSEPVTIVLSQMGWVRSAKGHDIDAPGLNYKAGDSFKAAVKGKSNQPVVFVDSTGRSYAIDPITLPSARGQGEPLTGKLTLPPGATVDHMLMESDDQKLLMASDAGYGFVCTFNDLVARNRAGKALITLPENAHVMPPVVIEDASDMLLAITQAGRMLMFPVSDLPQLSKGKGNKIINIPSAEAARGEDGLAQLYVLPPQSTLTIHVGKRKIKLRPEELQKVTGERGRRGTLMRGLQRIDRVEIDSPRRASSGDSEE
Sequence (P20083 whole entry, looked up): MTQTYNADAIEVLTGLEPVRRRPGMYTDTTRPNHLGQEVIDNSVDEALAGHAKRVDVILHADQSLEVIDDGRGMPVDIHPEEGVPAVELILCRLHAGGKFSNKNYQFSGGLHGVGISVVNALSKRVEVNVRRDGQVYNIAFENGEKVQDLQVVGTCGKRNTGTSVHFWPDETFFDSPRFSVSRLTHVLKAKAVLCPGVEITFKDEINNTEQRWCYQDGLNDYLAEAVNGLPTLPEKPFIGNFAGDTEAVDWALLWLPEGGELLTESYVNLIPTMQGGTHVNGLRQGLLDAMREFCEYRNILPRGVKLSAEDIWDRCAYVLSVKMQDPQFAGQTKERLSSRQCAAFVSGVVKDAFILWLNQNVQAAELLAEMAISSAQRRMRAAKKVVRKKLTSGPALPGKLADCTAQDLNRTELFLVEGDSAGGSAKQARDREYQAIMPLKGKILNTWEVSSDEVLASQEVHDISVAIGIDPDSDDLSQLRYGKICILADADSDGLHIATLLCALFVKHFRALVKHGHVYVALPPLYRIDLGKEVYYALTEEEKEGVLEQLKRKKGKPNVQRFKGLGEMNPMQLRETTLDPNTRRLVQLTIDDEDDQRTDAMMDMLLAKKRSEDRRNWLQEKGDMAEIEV
pIC50: −log10 of the molar value.
attribute measured: pIC50

INSERT INTO results (compound, assayed_system, result_comparator, result_value) VALUES
  ('CCCCCCCCCCCCOC(=O)c1cc(O)c(O)c(O)c1 [Dodecyl gallate, dodecyl gallate]', 'E. coli DNA topoisomerase IV (Escherichia coli (strain K12), UniProt P0AFI2+P20083)', '=', 4.30),
  ('CCCCOC(=O)c1cc(O)c(O)c(O)c1 [Butyl gallate, butyl gallate]', 'E. coli DNA topoisomerase IV (Escherichia coli (strain K12), UniProt P0AFI2+P20083)', '<', 4.00),
  ('O=C(Oc1ccccc1)c1cc(O)c(O)c(O)c1 [Phenyl gallate, phenyl gallate]', 'E. coli DNA topoisomerase IV (Escherichia coli (strain K12), UniProt P0AFI2+P20083)', '<', 4.00),
  ('CCCCCCCCOC(=O)c1cc(O)c(O)c(O)c1 [Octyl gallate, octyl gallate]', 'E. coli DNA topoisomerase IV (Escherichia coli (strain K12), UniProt P0AFI2+P20083)', '=', 4.30),
  ('O=C(O)c1cc(O)c(O)c(O)c1', 'E. coli DNA topoisomerase IV (Escherichia coli (strain K12), UniProt P0AFI2+P20083)', '<', 3.30),
  ('O=C(O)c1cc(O)c(O)c(OC(=O)c2cc(O)c(O)c(O)c2)c1', 'E. coli DNA topoisomerase IV (Escherichia coli (strain K12), UniProt P0AFI2+P20083)', '=', 5.10);

Where do these numbers come from? They come from patent US20230364057A1.
